test system: Staphylococcus aureus; test: Antibacterial activity against Staphylococcus aureus ATCC 43300; format: functional
Active and inactive are the calls of the source. No cut-off for these calls is given here.
parameter-measured: MIC50

CN1C[C@@H](CN(Cc2ccccc2)Cc2ccc(F)cc2F)OC1=O: 119 µg/mL
CCN1CC[C@@H](CN(Cc2ccccc2)Cc2ccc(F)cc2)OC1=O: 47 µg/mL
CN1CC[C@@H](CN(Cc2ccccc2)Cc2ccccc2[N+](=O)[O-])OC1=O: inactive
CN1CC[C@@H](CN(Cc2ccccc2)Cc2ccc3ccccc3c2)OC1=O: 13 µg/mL
CN1CC[C@@H](CN(Cc2ccccc2)Cc2cccc([N+](=O)[O-])c2)OC1=O: inactive

Which MIC50 reading was recorded for the compound CCN1CC[C@@H](CN(Cc2ccccc2)Cc2ccc3ccccc3c2)OC1=O ? inactive

One more compound: CN1CC[C@@H](CN(Cc2ccccc2)Cc2ccccc2C#N)OC1=O 180 µg/mL

One more compound: CCN1CC[C@@H](CN(Cc2ccccc2)Cc2ccccc2C#N)OC1=O 180 µg/mL

* * *

tested on: Staphylococcus aureus; test: Antibacterial activity against Staphylococcus aureus ATCC 43300; type: functional
Active and inactive are the calls of the source. The rule behind the calls is not given here.
parameter-measured: MIC50

CCN1CC[C@@H](CN(Cc2ccccc2)Cc2ccc([N+](=O)[O-])cc2)OC1=O: inactive
CN1CC[C@@H](CN(Cc2ccccc2)Cc2ccc(F)cc2)OC1=O: 119 µg/mL
CN1C[C@@H](CN(Cc2ccccc2)Cc2ccc(F)cc2)OC1=O: inactive
CCN1CC[C@@H](CN(Cc2ccccc2)Cc2cccc3ccccc23)OC1=O: 35 µg/mL
